Just for reference, ChEMBL document CHEMBL1255526 is where these values come from.

Target: PXR (nuclear receptor subfamily 1 group I member 2) (Homo sapiens, UniProt O75469)
Sequence (O75469 whole entry): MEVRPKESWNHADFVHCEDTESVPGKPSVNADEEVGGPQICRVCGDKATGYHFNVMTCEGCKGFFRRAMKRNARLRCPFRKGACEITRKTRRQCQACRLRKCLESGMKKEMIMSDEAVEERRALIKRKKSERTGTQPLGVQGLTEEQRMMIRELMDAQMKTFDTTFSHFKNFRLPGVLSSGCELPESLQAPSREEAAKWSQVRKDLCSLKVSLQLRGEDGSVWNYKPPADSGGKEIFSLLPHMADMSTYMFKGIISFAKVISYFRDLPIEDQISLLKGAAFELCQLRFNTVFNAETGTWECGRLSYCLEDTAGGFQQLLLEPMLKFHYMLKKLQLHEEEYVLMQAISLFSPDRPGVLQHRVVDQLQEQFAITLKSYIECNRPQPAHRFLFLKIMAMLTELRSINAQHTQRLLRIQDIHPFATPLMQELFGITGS
Assay: Inhibition of human PXR induction at 10 uM
Documented Emax at 10 µM across a set of compounds
Field format: number, assumed %, no unit text.

Example results:
[
  {
    "Compound": "C[C@@H](O[C@H]1CN2C(=O)[C@H]3C[C@H](NCc4ccccc4)C[C@H]3[C@H]2[C@@H]1c1ccc(F)cc1)c1cc(C(F)(F)F)cc(C(F)(F)F)c1",
    "Emax at 10 µM / %": 0
  },
  {
    "Compound": "C[C@@H](O[C@H]1CN2C(=O)CC(N)[C@H]2[C@@H]1c1ccc(F)cc1)c1cc(C(F)(F)F)cc(C(F)(F)F)c1 (stereo partly drawn)",
    "Emax at 10 µM / %": 1
  }
]

Kindly note: PXR (nuclear receptor subfamily 1 group I member 2) (Homo sapiens, UniProt O75469), C[C@@H](O[C@H]1CN2C(=O)[C@H]3C[C@@](C)(O)C[C@H]3[C@H]2[C@@H]1c1ccc(F)cc1)c1cc(C(F)(F)F)cc(C(F)(F)F)c1 , Emax at 10 µM value reported: 37

###

system: Meriones unguiculatus; assay: Inhibition of GR-73632-induced foot tapping in Mongolian gerbil at 3 mg/kg after 24 hrs; format: functional
Observed Property: inhibition in vivo at 3 mg/kg (%)
Field format: number, assumed %, no unit text.

[
  {
    "Compound": "C[C@@H](O[C@H]1CN2C(=O)CC[C@H]2[C@@H]1c1ccc(F)cc1)c1cc(C(F)(F)F)cc(C(F)(F)F)c1",
    "inhibition in vivo at 3 mg/kg [%]": 100
  },
  {
    "Compound": "C[C@@H](O[C@H]1CN2C(=O)CC(N)[C@H]2[C@@H]1c1ccc(F)cc1)c1cc(C(F)(F)F)cc(C(F)(F)F)c1 (stereo partly drawn)",
    "inhibition in vivo at 3 mg/kg [%]": 100
  },
  {
    "Compound": "C[C@@H](O[C@H]1CN2C(=O)[C@H]3C[C@@H](N)C[C@H]3[C@H]2[C@@H]1c1ccc(F)cc1)c1cc(C(F)(F)F)cc(C(F)(F)F)c1",
    "inhibition in vivo at 3 mg/kg [%]": 91
  },
  {
    "Compound": "C[C@@H](O[C@H]1CN2C(=O)C3CNCC3[C@H]2[C@@H]1c1ccc(F)cc1)c1cc(C(F)(F)F)cc(C(F)(F)F)c1 (stereo in doubt; 6b) [FIRST ELUDED ISOMER]",
    "inhibition in vivo at 3 mg/kg [%]": 12
  }
]

Looking up C[C@@H](O[C@H]1CN2C(=O)[C@@H]3C[C@@H](NCc4ccccc4)C[C@@H]3[C@H]2[C@@H]1c1ccc(F)cc1)c1cc(C(F)(F)F)cc(C(F)(F)F)c1 , I see its inhibition in vivo at 3 mg/kg listed as 6

Looking up C[C@@H](O[C@H]1CN2C(=O)[C@H]3C[C@@](C)(O)C[C@H]3[C@H]2[C@@H]1c1ccc(F)cc1)c1cc(C(F)(F)F)cc(C(F)(F)F)c1 , I see its inhibition in vivo at 3 mg/kg listed as 100

Looking up C[C@@H](O[C@H]1CN2C(=O)[C@H]3C[C@H](N)C[C@H]3[C@H]2[C@@H]1c1ccc(F)cc1)c1cc(C(F)(F)F)cc(C(F)(F)F)c1 , I see its inhibition in vivo at 3 mg/kg listed as 100

Looking up C[C@@H](O[C@H]1CN2C(=O)C3CN(C4=CC(=O)CC4)CC3[C@H]2[C@@H]1c1ccc(F)cc1)c1cc(C(F)(F)F)cc(C(F)(F)F)c1 (single isomer, unassigned) [FIRST ELUDED ISOMER] , I see its inhibition in vivo at 3 mg/kg listed as 32

Looking up C[C@@H](O[C@H]1CN2C(=O)[C@H]3C[C@H](NCc4ccccc4)C[C@H]3[C@H]2[C@@H]1c1ccc(F)cc1)c1cc(C(F)(F)F)cc(C(F)(F)F)c1 , I see its inhibition in vivo at 3 mg/kg listed as 94

Looking up C[C@@H](O[C@H]1CN2C(=O)[C@H]3C[C@@H](O)C[C@H]3[C@H]2[C@@H]1c1ccc(F)cc1)c1cc(C(F)(F)F)cc(C(F)(F)F)c1 , I see its inhibition in vivo at 3 mg/kg listed as 100

Looking up C[C@@H](O[C@H]1CN2C(=O)C(N)C[C@H]2[C@@H]1c1ccc(F)cc1)c1cc(C(F)(F)F)cc(C(F)(F)F)c1 (stereo partly drawn) , I see its inhibition in vivo at 3 mg/kg listed as 100

Looking up CC[C@]1(O)C[C@H]2[C@H]3[C@H](c4ccc(F)cc4)[C@@H](O[C@H](C)c4cc(C(F)(F)F)cc(C(F)(F)F)c4)CN3C(=O)[C@H]2C1 , I see its inhibition in vivo at 3 mg/kg listed as 100

Looking up C[C@@H](O[C@H]1CN2C(=O)[C@H]3C[C@@H](NCc4ccccc4)C[C@H]3[C@H]2[C@@H]1c1ccc(F)cc1)c1cc(C(F)(F)F)cc(C(F)(F)F)c1 , I see its inhibition in vivo at 3 mg/kg listed as 100

###

target: Substance-P receptor (Homo sapiens); assay: Antagonist activity at human recombinant NK1 receptor expressed in CHO cells assessed as remaining substance P level at 100 nM after 30 mins by [H3]-inositol phosphate release assay; type: functional, cell-based
Observed Property: Activity (%)
Field format: number, assumed %, no unit text.

Example results:
[
  {
    "Molecule": "CC(O[C@H]1CN2C(=O)[C@@H]3CC(N)C[C@@H]3[C@H]2[C@@H]1c1ccc(F)cc1)c1cc(C(F)(F)F)cc(C(F)(F)F)c1 (single isomer, unassigned)",
    "Meas Value": 61
  },
  {
    "Molecule": "C[C@@H](O[C@H]1CN2C(=O)CC[C@H]2[C@@H]1c1ccc(F)cc1)c1cc(C(F)(F)F)cc(C(F)(F)F)c1",
    "Meas Value": 88
  }
]

Looking up C[C@@H](O[C@H]1CN2C(=O)C3CNCC3[C@H]2[C@@H]1c1ccc(F)cc1)c1cc(C(F)(F)F)cc(C(F)(F)F)c1 (stereo in doubt; 6b) , I see its Activity listed as 60

###

molecular target: Substance-P receptor (Homo sapiens, UniProt P25103); experiment: Antagonist activity at human recombinant NK1 receptor expressed in CHO cells assessed as remaining substance P level at 100 nM after 30 mins by [H3]-inositol phosphate release assay; assay type: functional, cell-based
Sequence (P25103 whole entry): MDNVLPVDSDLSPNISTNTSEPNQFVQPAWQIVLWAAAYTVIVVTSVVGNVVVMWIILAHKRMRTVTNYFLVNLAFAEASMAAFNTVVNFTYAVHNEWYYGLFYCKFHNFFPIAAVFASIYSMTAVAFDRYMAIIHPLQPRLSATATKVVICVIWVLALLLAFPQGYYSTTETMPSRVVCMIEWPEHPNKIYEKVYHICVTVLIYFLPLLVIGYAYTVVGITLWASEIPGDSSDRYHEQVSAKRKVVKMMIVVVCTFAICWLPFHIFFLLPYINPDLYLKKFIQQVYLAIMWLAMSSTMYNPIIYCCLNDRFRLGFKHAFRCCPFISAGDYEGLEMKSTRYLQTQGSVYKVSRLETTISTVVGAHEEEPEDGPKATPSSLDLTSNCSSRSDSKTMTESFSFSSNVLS
Please respond with TRUE when measured Activity is strictly beneath 50%, and with FALSE in all other cases.

Recorded results for 5 molecules are shown here.
[
  {
    "Molecule": "C[C@@H](O[C@H]1CN2C(=O)CC(N)[C@H]2[C@@H]1c1ccc(F)cc1)c1cc(C(F)(F)F)cc(C(F)(F)F)c1 (stereo partly drawn)",
    "Qualitative Label": "FALSE"
  },
  {
    "Molecule": "C[C@@H](O[C@H]1CN2C(=O)[C@@H]3C[C@H](N)C[C@@H]3[C@H]2[C@@H]1c1ccc(F)cc1)c1cc(C(F)(F)F)cc(C(F)(F)F)c1",
    "Qualitative Label": "FALSE"
  },
  {
    "Molecule": "C[C@@H](O[C@H]1CN2C(=O)C3CN(C4=CC(=O)CC4)CC3[C@H]2[C@@H]1c1ccc(F)cc1)c1cc(C(F)(F)F)cc(C(F)(F)F)c1 (stereo in doubt; 18b)",
    "Qualitative Label": "TRUE"
  },
  {
    "Molecule": "C[C@@H](O[C@H]1CN2C(=O)C3CNCC3[C@H]2[C@@H]1c1ccc(F)cc1)c1cc(C(F)(F)F)cc(C(F)(F)F)c1 (single isomer, unassigned)",
    "Qualitative Label": "TRUE"
  },
  {
    "Molecule": "C[C@@H](O[C@H]1CN2C(=O)[C@H]3C[C@H](N)C[C@H]3[C@H]2[C@@H]1c1ccc(F)cc1)c1cc(C(F)(F)F)cc(C(F)(F)F)c1",
    "Qualitative Label": "TRUE"
  }
]

Q. Below 50% on Activity? Entry C[C@@H](O[C@H]1CN2C(=O)[C@@H]3C[C@@H](NCc4ccccc4)C[C@@H]3[C@H]2[C@@H]1c1ccc(F)cc1)c1cc(C(F)(F)F)cc(C(F)(F)F)c1
A. FALSE

Q. Below 50% on Activity? Entry C[C@@H](O[C@H]1CN2C(=O)C3CN(C4=CC(=O)CC4)CC3[C@H]2[C@@H]1c1ccc(F)cc1)c1cc(C(F)(F)F)cc(C(F)(F)F)c1 (single isomer, unassigned)
A. TRUE

Q. Below 50% on Activity? Entry C[C@@H](O[C@H]1CN2C(=O)[C@H]3C[C@](C)(O)C[C@H]3[C@H]2[C@@H]1c1ccc(F)cc1)c1cc(C(F)(F)F)cc(C(F)(F)F)c1
A. TRUE
